Data credit: paper PMC7819943

Target system: OsSMF1 (Oryza sativa, UniProt Q6ZLB0 1-436)
Sequence: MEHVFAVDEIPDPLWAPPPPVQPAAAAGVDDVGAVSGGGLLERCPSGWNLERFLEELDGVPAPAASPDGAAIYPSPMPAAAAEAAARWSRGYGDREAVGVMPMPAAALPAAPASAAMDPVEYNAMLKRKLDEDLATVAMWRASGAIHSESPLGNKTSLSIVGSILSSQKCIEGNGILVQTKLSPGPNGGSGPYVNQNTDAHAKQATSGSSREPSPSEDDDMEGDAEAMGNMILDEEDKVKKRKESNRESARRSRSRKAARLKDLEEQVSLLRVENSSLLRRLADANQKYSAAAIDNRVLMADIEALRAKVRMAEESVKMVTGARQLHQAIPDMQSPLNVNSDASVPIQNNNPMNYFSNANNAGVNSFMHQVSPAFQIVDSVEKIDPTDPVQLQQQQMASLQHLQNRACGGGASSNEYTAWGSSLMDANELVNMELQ
Assay comment: protein-binding microarray (RPBM); PBS, 2% BSA, 51.3 ng/ul salmon testes DNA, 50 uM zinc acetate, 200 nM TF, 25 C, 1 h; high values mean tight binding
Recorded conditions: protein: recombinant; tags: N-terminal polyhistidine and DsRed monomer fusion (pET32a); chain copies: 2; label: CyDye5-dUTP incorporated in the synthesized complementary strand; 3' TTTTT single-stranded linker to array surface; dsDNA, one strand shown
The full ranking holds about 39,000 sequences; the median of “fluorescence intensity (a.u.)” is about 4,300, and the highest 2% start at about 39,000. Only a selection was taken, and the highest values are over-represented in it overall.
Property label: binding signal

Query :: Requested read-out binding signal, target or system OsSMF1 (Oryza sativa, UniProt Q6ZLB0 1-436), entry CGCATTGAGCCATTTACACTACACACACAGCCCCAGATTCCGGAGTCACCTAGTGCAG
Result :: 3420 fluorescence intensity (a.u.)

Query :: Requested read-out binding signal, target or system OsSMF1 (Oryza sativa, UniProt Q6ZLB0 1-436), entry GGGAGGAAGAAGAAAGGGAGAGAGAGGGGATGACATGTGGCGGAGTCACCTAGTGCAG
Result :: 5680 fluorescence intensity (a.u.)

Query :: Requested read-out binding signal, target or system OsSMF1 (Oryza sativa, UniProt Q6ZLB0 1-436), entry AATCCGCCGAGGGACTTATTGTGACCGGTTTTGATTAGTTCGGAGTCACCTAGTGCAG
Result :: 19600 fluorescence intensity (a.u.)

Query :: Requested read-out binding signal, target or system OsSMF1 (Oryza sativa, UniProt Q6ZLB0 1-436), entry GAATTAGCTTGATTGACAGAAACAAATGGCTACAACTACACGGAGTCACCTAGTGCAG
Result :: 65500 fluorescence intensity (a.u.)

Query :: Requested read-out binding signal, target or system OsSMF1 (Oryza sativa, UniProt Q6ZLB0 1-436), entry TCCCTCTGACATGGTTCATTGATAGGTGGACTCTCTATTCCGGAGTCACCTAGTGCAG
Result :: 3240 fluorescence intensity (a.u.)

Query :: Requested read-out binding signal, target or system OsSMF1 (Oryza sativa, UniProt Q6ZLB0 1-436), entry AACCCCAGAAACCAGAGGCGGGCTGGTTGATCCATTCTTTCGGAGTCACCTAGTGCAG
Result :: 45000 fluorescence intensity (a.u.)

Query :: Requested read-out binding signal, target or system OsSMF1 (Oryza sativa, UniProt Q6ZLB0 1-436), entry AAAGATCAGAGAGACTACTAATCCGGTTTATTTACTGGCACGGAGTCACCTAGTGCAG
Result :: 44100 fluorescence intensity (a.u.)

Query :: Requested read-out binding signal, target or system OsSMF1 (Oryza sativa, UniProt Q6ZLB0 1-436), entry GAAAGCTAGAAGAGAAATTGACCTGGATTGAGTTTTGTGCCGGAGTCACCTAGTGCAG
Result :: 4170 fluorescence intensity (a.u.)

Query :: Requested read-out binding signal, target or system OsSMF1 (Oryza sativa, UniProt Q6ZLB0 1-436), entry CCGGGCTACCATCGCGGCGACGAAACGTGCATCATCATCCCGGAGTCACCTAGTGCAG
Result :: 3850 fluorescence intensity (a.u.)

Query :: Requested read-out binding signal, target or system OsSMF1 (Oryza sativa, UniProt Q6ZLB0 1-436), entry GATTCGCGTCCTCCGTTTGCTTCGCTTCTTCTTCTAGAACCGGAGTCACCTAGTGCAG
Result :: 3490 fluorescence intensity (a.u.)

Query :: Requested read-out binding signal, target or system OsSMF1 (Oryza sativa, UniProt Q6ZLB0 1-436), entry TGTTTTCTAATATTTACAATCAGATCCCTTGAGTGAGTCACGGAGTCACCTAGTGCAG
Result :: 4150 fluorescence intensity (a.u.)

Query :: Requested read-out binding signal, target or system OsSMF1 (Oryza sativa, UniProt Q6ZLB0 1-436), entry GATTCAAGGTTGAGAGGACCTAAGATGTCCAATGATGTGTCGGAGTCACCTAGTGCAG
Result :: 3470 fluorescence intensity (a.u.)

Query :: Requested read-out binding signal, target or system OsSMF1 (Oryza sativa, UniProt Q6ZLB0 1-436), entry TTTCCTTGGAGAATCCAGATCAGCTTCCTAATCACCCTCACGGAGTCACCTAGTGCAG
Result :: 4040 fluorescence intensity (a.u.)

Query :: Requested read-out binding signal, target or system OsSMF1 (Oryza sativa, UniProt Q6ZLB0 1-436), entry TTGGATGACACAACAACATGTAAGGTTAGAAACGATATGTCGGAGTCACCTAGTGCAG
Result :: 3990 fluorescence intensity (a.u.)

Query :: Requested read-out binding signal, target or system OsSMF1 (Oryza sativa, UniProt Q6ZLB0 1-436), entry AGTATGAAAGACCTGAGGATGACCCGGATTATATTCCTATCGGAGTCACCTAGTGCAG
Result :: 3320 fluorescence intensity (a.u.)

Query :: Requested read-out binding signal, target or system OsSMF1 (Oryza sativa, UniProt Q6ZLB0 1-436), entry AGAAATTGAATTGCTTGCTACAGAGAAGCTAGAAGAGTTTCGGAGTCACCTAGTGCAG
Result :: 64800 fluorescence intensity (a.u.)

Query :: Requested read-out binding signal, target or system OsSMF1 (Oryza sativa, UniProt Q6ZLB0 1-436), entry CGTGGTGGACGGCCTCGACGAGGCGATCTGCCCGGTGGCGCGGAGTCACCTAGTGCAG
Result :: 3240 fluorescence intensity (a.u.)

Query :: Requested read-out binding signal, target or system OsSMF1 (Oryza sativa, UniProt Q6ZLB0 1-436), entry CGCATCGCATCTATGACTGGAGAGTGTATCTTTGCTTGCACGGAGTCACCTAGTGCAG
Result :: 3180 fluorescence intensity (a.u.)

Query :: Requested read-out binding signal, target or system OsSMF1 (Oryza sativa, UniProt Q6ZLB0 1-436), entry AGCGGCGTCGTCTCGGCGGTGGCCGGTGCCACGGCGGCGGCGGAGTCACCTAGTGCAG
Result :: 6200 fluorescence intensity (a.u.)

Query :: Requested read-out binding signal, target or system OsSMF1 (Oryza sativa, UniProt Q6ZLB0 1-436), entry TCTGTTTAGTTACATCACTGATGGTCTTGATTTCGCAGTGCGGAGTCACCTAGTGCAG
Result :: 4040 fluorescence intensity (a.u.)

Query :: Requested read-out binding signal, target or system OsSMF1 (Oryza sativa, UniProt Q6ZLB0 1-436), entry AACTTTGTTGTTGATGACGTTTTCAGTTGAAGTCGTTCACCGGAGTCACCTAGTGCAG
Result :: 7120 fluorescence intensity (a.u.)

Query :: Requested read-out binding signal, target or system OsSMF1 (Oryza sativa, UniProt Q6ZLB0 1-436), entry GGGAGGTGTGGTGATCGATCGCCATGCGCGGATTTTCTAACGGAGTCACCTAGTGCAG
Result :: 5590 fluorescence intensity (a.u.)

Query :: Requested read-out binding signal, target or system OsSMF1 (Oryza sativa, UniProt Q6ZLB0 1-436), entry ATGTGATGCATGATGATTAGATATGCTTGCATGTTAATTTCGGAGTCACCTAGTGCAG
Result :: 3160 fluorescence intensity (a.u.)

Query :: Requested read-out binding signal, target or system OsSMF1 (Oryza sativa, UniProt Q6ZLB0 1-436), entry TTCTTCTTCTATTCCACGTCCACGTGTATGGCCAGGAGTTCGGAGTCACCTAGTGCAG
Result :: 16100 fluorescence intensity (a.u.)

Query :: Requested read-out binding signal, target or system OsSMF1 (Oryza sativa, UniProt Q6ZLB0 1-436), entry TCAGAATGCGTGTGATGTAAAAGTTCGAGAAGACTTTGTTCGGAGTCACCTAGTGCAG
Result :: 3210 fluorescence intensity (a.u.)

Query :: Requested read-out binding signal, target or system OsSMF1 (Oryza sativa, UniProt Q6ZLB0 1-436), entry AAAGAATGACGATATGATGTGAGAAGTTTGTGAAGACTTGCGGAGTCACCTAGTGCAG
Result :: 41100 fluorescence intensity (a.u.)

Query :: Requested read-out binding signal, target or system OsSMF1 (Oryza sativa, UniProt Q6ZLB0 1-436), entry ACGATATGACGGAAAAGTTGGAAGTTTGTGTGTAGAAAAGCGGAGTCACCTAGTGCAG
Result :: 3140 fluorescence intensity (a.u.)

Query :: Requested read-out binding signal, target or system OsSMF1 (Oryza sativa, UniProt Q6ZLB0 1-436), entry CTTTTGGTCTCGCGCCCACTGACACGTGGGTCCCACGCTCCGGAGTCACCTAGTGCAG
Result :: 6100 fluorescence intensity (a.u.)

Query :: Requested read-out binding signal, target or system OsSMF1 (Oryza sativa, UniProt Q6ZLB0 1-436), entry CATTCTTAATGTAAAATATGAATGTAAATGAAATGTATGCCGGAGTCACCTAGTGCAG
Result :: 3840 fluorescence intensity (a.u.)

Query :: Requested read-out binding signal, target or system OsSMF1 (Oryza sativa, UniProt Q6ZLB0 1-436), entry AAATGGCCTTGCACACCTTGTCATTGAAATTAAGAACAAACGGAGTCACCTAGTGCAG
Result :: 6400 fluorescence intensity (a.u.)

Query :: Requested read-out binding signal, target or system OsSMF1 (Oryza sativa, UniProt Q6ZLB0 1-436), entry GAATGAATTGAAACAGACAATGCACACGCTTAGTCCATGACGGAGTCACCTAGTGCAG
Result :: 28800 fluorescence intensity (a.u.)

Query :: Requested read-out binding signal, target or system OsSMF1 (Oryza sativa, UniProt Q6ZLB0 1-436), entry ACTAGTTTACAACCACACCAACATGTAGGCATGAACATGGCGGAGTCACCTAGTGCAG
Result :: 22900 fluorescence intensity (a.u.)
